test: In vivo pharmacokinetic study of VEN and ODV in rats with or without vonoprazan; parameters: species or system Sprague-Dawley rats; settings: male, Sprague-Dawley, rat, plasma, po, 20 mg/kg, t1/2z, rat plasma; VEN 20 mg/kg oral; + vonoprazan 5 mg/kg oral, 7 days
TEST READOUT: half-life (h)
Please respond with the number in h and leave the unit unwritten.

Task item: For the molecule shown here, CN(C)CC(c1ccc(O)cc1)C1(O)CCCCC1 (centres unmarked) , give the reported half-life.
Reply: 2.01

Task item: For the molecule shown here, COc1ccc(C(CN(C)C)C2(O)CCCCC2)cc1 (centres unmarked) , give the reported half-life.
Reply: 1.48

Taken from paper PMC7667002.
